Measured pIC50 by item
- studySystem: Adenosine kinase (Rattus norvegicus, UniProt Q64640)
- Sequence (Q64640 whole entry): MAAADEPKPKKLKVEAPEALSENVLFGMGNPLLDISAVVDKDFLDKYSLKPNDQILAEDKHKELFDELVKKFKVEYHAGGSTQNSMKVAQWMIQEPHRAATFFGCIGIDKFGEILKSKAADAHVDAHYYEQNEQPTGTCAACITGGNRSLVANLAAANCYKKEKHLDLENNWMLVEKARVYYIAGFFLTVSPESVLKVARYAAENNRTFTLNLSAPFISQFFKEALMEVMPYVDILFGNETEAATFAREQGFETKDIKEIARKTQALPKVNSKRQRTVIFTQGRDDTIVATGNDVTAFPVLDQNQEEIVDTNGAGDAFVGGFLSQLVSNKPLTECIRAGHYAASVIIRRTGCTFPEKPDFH
- experimentalDetails: Inhibitory activity against cytosolic adenosine kinase by ADO phosphorylation assay
pIC50: −log10 of the molar value.

| recordSmiles | pIC50 |
| --- | --- |
| CCC(CC)c1cc(-c2ccc(N3CCOCC3)nc2)nc2ncnc(N)c12 | 8.05 |
| CN(C)c1ccc(-c2ccc3c(N)ncnc3n2)cc1 | 6.13 |
| CN(C)c1ccc(-c2cc(C3CC3)c3c(N)ncnc3n2)cc1 | 7.26 |

---

- studySystem: Adenosine kinase (Rattus norvegicus)
- experimentalDetails: Inhibitory activity against cytosolic adenosine kinase by ADO phosphorylation assay
pIC50: −log10 of the molar value.
Each entry falls in a class defined on pIC50; the bands are low-valued: < 7; mid-valued: ≥ 7 and < 8; high-valued: ≥ 8

| recordSmiles | group |
| --- | --- |
| Nc1ncnc2nc(-c3ccc(N4CCOCC4)nc3)ccc12 | low-valued |
| CN(C)c1ccc(-c2cc(-c3cccc(C#N)c3)c3c(N)ncnc3n2)cc1 | mid-valued |
| Nc1ncnc2nc(-c3ccc(N4CCOCC4)nc3)cc(C3CCCC3)c12 | high-valued |
| CN(C)c1ccc(-c2cnc3c(N)ncnc3n2)cc1 | low-valued |
| Nc1ncnc2nc(-c3ccc(N4CCOCC4)nc3)cc(-c3ccccc3Br)c12 | high-valued |
| Cc1cc(-c2ccc(N(C)C)cc2)nc2ncnc(N)c12 | mid-valued |
| Nc1ncnc2nc(-c3ccc(N4CCOCC4)nc3)cc(-c3ccc(Br)cc3)c12 | mid-valued |

---

IC50 for assorted compounds
- studySystem: Adenosine kinase (Rattus norvegicus, UniProt Q64640)
- experimentalDetails: Inhibitory activity against intact cell adenosine kinase by ADO phosphorylation assay

| compound | IC50 |
| --- | --- |
| CCC(CC)c1cc(-c2ccc(N3CCOCC3)nc2)nc2ncnc(N)c12 | 115 nM |
| CN(C)c1ccc(-c2cc(-c3cccc(Cl)c3)c3c(N)ncnc3n2)cc1 | 78 nM |
| Nc1ncnc2nc(-c3ccc(N4CCOCC4)nc3)cc(-c3cccc(Cl)c3)c12 | 96 nM |
| Nc1ncnc2nc(-c3ccc(N4CCOCC4)nc3)cc(-c3cccc(Cl)c3Cl)c12 | 130 nM |
| CN(C)c1ccc(-c2cc(-c3cccc(I)c3)c3c(N)ncnc3n2)cc1 | 120 nM |
| COc1cccc(-c2cc(-c3ccc(N(C)C)cc3)nc3ncnc(N)c23)c1 | 400 nM |
| Nc1ncnc2nc(-c3ccc(N4CCOCC4)nc3)cc(-c3cccc(Br)c3)c12 | 50 nM |
| Nc1ncnc2nc(-c3ccc(N4CCOCC4)nc3)ccc12 | > 1000 nM |
| CC1CC(C)CC(c2cc(-c3ccc(N4CCOCC4)nc3)nc3ncnc(N)c23)C1 (stereo not drawn) | 102 nM |
| Nc1ncnc2nc(-c3ccc(N4CCOCC4)nc3)cc(-c3ccsc3)c12 | 550 nM |
| Cc1cc(-c2ccc(N(C)C)cc2)nc2ncnc(N)c12 | > 1000 nM |
| CN(C)c1ccc(-c2cc(-c3cccc(C(F)(F)F)c3)c3c(N)ncnc3n2)cc1 | 225 nM |
| Nc1ncnc2nc(-c3ccc(N4CCOCC4)nc3)cc(C3CCOCC3)c12 | 800 nM |

---

Measured IC50 accompanies every entry in the list below.
- studySystem: Adenosine kinase (Rattus norvegicus)
- experimentalDetails: Inhibitory activity against intact cell adenosine kinase by ADO phosphorylation assay

| recordSmiles | endpointUnit | IC50 |
| --- | --- | --- |
| CN(C)c1ccc(-c2cc(C3CC3)c3c(N)ncnc3n2)cc1 | nM | 825 |
| Nc1ncnc2nc(-c3ccc(N4CCOCC4)nc3)cc(-c3ccc(Br)cc3)c12 | nM | 430 |
| CCCCc1cc(-c2ccc(N(C)C)cc2)nc2ncnc(N)c12 | nM | 550 |

Each recorded value in this set is attributed to ChEMBL document CHEMBL1134053.
